Cited source: ChEMBL document CHEMBL1955759

The entries below come with measured logP values attached.
- ASSAY_DETAILS: n-Octanol-water distribution coefficient, log K of the compound by shake flask method
- Type: physicochemical
- CONDITION_INFO: read-out: log KOW

[
  {
    "CHEMICAL_STRING": "NC(=O)N/N=C/c1ccccc1",
    "logP": 0.91
  },
  {
    "CHEMICAL_STRING": "NC(=O)N/N=C/c1cccc(O)c1",
    "logP": 0.43
  },
  {
    "CHEMICAL_STRING": "NC(=O)N/N=C/c1ccc(O)cc1",
    "logP": 0.31
  },
  {
    "CHEMICAL_STRING": "NC(=O)N/N=C/c1ccccc1O",
    "logP": 0.85
  }
]
